Biological target: Fibroblast growth factor receptor 2 (Homo sapiens, UniProt P21802)
Sequence (P21802 whole entry): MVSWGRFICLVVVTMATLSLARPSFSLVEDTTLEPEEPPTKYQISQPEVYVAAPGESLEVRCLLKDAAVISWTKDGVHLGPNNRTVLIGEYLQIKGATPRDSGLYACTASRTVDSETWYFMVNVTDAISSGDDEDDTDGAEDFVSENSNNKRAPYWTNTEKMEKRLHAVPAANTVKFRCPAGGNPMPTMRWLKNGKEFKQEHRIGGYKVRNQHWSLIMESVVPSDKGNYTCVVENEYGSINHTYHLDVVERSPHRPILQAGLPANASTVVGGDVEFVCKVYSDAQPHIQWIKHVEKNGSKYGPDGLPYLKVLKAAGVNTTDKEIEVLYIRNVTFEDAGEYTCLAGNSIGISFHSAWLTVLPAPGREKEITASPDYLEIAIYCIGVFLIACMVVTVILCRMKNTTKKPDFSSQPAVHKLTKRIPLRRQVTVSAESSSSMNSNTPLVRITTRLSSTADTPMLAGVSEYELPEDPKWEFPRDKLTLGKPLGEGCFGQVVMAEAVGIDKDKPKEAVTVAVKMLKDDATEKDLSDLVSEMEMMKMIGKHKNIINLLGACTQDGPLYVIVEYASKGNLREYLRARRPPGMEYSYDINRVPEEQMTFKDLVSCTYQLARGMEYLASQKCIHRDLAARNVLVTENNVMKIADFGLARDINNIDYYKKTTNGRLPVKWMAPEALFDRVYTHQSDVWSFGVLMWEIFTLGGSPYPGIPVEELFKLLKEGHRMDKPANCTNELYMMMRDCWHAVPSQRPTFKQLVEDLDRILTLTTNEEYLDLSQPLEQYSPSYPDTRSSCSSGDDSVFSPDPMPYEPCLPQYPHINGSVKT
Assay: Inhibition of recombinant His6-tagged FGFR2 (unknown origin) expressed in Escherichia coli BL21(DE3)-RILP using peptidic substrate by ELISA
VALUE KIND: IC50 (nM)
Could you give me the number in nM? Just the number is fine.

Inquiry: Item Nc1ncc2c(n1)-c1ccccc1[C@H](c1ccccc1)C2 has what recorded IC50?
Reply text: 1230
